B1: library; numbered along this chain (parent)
chain: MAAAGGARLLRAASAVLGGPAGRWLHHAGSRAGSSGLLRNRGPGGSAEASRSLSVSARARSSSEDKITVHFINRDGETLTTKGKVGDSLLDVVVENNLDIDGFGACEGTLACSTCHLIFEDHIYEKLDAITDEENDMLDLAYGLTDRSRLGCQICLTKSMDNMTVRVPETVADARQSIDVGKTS

# Variants of: B1
# methodDescription: scaled log2 fold change in cell abundance, elesclomol vs control (0 = silent mean, 1 = nonsense mean) (scaled log2 ratio); higher = higher viability under elesclomol (loss of FDX1 cuproptosis function);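 also: variant abundance is its share of total variant reads in each endpoint sample, from next-generation sequencing of the integrated ORF PCR-amplified out of genomic DNA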
# experimentalParameters: with ABC1 FDX1 KO; elesclomol 5 nM; glucose 10 mM; 14 days
Please note: Yes applies when scaled log2 fold change is 0.2 or greater, and No applies otherwise.

change	groupLabel
D139I	No

Test whether the variant `D91C` records scaled log2 fold change of 0.2 or higher.
No

Test whether the variant `T114H` records scaled log2 fold change of 0.2 or higher.
No

Test whether the variant `M160Y` records scaled log2 fold change of 0.2 or higher.
Yes

Test whether the variant `S56I` records scaled log2 fold change of 0.2 or higher.
No

Test whether the variant `A4K` records scaled log2 fold change of 0.2 or higher.
No

Test whether the variant `V16D` records scaled log2 fold change of 0.2 or higher.
No

Test whether the variant `H26S` records scaled log2 fold change of 0.2 or higher.
Yes

Test whether the variant `F103D` records scaled log2 fold change of 0.2 or higher.
Yes

Test whether the variant `S61I` records scaled log2 fold change of 0.2 or higher.
No

Test whether the variant `V167N` records scaled log2 fold change of 0.2 or higher.
No

Test whether the variant `A12Y` records scaled log2 fold change of 0.2 or higher.
Yes

Test whether the variant `D139Q` records scaled log2 fold change of 0.2 or higher.
No

Test whether the variant `G108V` records scaled log2 fold change of 0.2 or higher.
Yes

Test whether the variant `N162P` records scaled log2 fold change of 0.2 or higher.
No

Test whether the variant `G104M` records scaled log2 fold change of 0.2 or higher.
Yes

Test whether the variant `C112Q` records scaled log2 fold change of 0.2 or higher.
Yes

Test whether the variant `D128H` records scaled log2 fold change of 0.2 or higher.
Yes

Test whether the variant `Q176W` records scaled log2 fold change of 0.2 or higher.
No

Test whether the variant `A47Q` records scaled log2 fold change of 0.2 or higher.
Yes

Test whether the variant `R8D` records scaled log2 fold change of 0.2 or higher.
Yes

Test whether the variant `H122M` records scaled log2 fold change of 0.2 or higher.
No
